Measured Target: ferroportin (Fpn) (Mus musculus)
Construct: endogenous in cells
Sequence (Q9JHI9 1-570): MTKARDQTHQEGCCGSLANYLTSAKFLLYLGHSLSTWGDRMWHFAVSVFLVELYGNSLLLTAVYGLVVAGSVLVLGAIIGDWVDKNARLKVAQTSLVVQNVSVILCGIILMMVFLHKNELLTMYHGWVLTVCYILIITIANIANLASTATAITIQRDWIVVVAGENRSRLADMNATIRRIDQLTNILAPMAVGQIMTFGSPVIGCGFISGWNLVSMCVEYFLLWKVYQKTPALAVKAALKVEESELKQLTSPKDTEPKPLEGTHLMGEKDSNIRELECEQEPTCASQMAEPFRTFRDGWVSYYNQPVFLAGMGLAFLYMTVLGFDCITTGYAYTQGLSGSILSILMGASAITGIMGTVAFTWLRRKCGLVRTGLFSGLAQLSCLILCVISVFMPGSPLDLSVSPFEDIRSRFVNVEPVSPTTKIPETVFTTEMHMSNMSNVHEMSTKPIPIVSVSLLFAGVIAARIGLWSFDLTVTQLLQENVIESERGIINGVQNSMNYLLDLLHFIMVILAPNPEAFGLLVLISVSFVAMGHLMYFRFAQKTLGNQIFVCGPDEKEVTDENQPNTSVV
Assay Info: Hepcidin Internalization Assay (J774)
Condition Details: Average (AVE) IC50 of multiple measurements; inhibition of TMR-hepcidin (25 nM) internalization into J774 cells
Readout Type: IC50 (nM)

Some molecules with recorded IC50:
Molecule	IC50 [nM]
CCCCn1c(CCNCCc2nc(C(=O)NCc3ncccc3F)co2)nc2cc(-c3ccccc3)ccc21 [Example 42]	2.4
COc1cccnc1CNC(=O)c1coc(CCNCCc2nc3cc4c(cc3n2CCOC2CCCCC2)OCCO4)n1 [Example 91]	2

a = CCCCn1c(CCNCCc2nc(C(=O)NCc3ncccc3F)co2)nc2ccccc21 [Example 2]
b = COc1cccnc1CNC(=O)c1coc(CCNCCc2nc3cc4c(cc3n2CCN(C)C)OCCO4)n1 [Example 76]
c = CN(C)CCn1c(CCNCCc2nc(C(=O)NCc3ncccc3F)co2)nc2ccccc21 [Example 56]
Q: Let's sort these by IC50, smallest first. Go ahead? Response format: the labels, sorted as the prompt asks.
Ans: a, c, b
(a: 1 nM, c: 9 nM, b: 13 nM)

a = O=C(NCc1ncccc1F)c1coc(CCNCCc2nc3ccccc3n2-c2cccc(Cl)c2)n1 [Example 64]
b = O=C(NCc1ncccc1F)c1coc(CCNCCc2nc3ccccc3n2Cc2ccccc2Cl)n1 [Example 54]
Q: Compare a and b and name the one whose reported IC50 is smaller. Give the chosen item's label as your response.
Ans: b

A = O=C(NCc1ncccc1F)c1coc(CCNCCc2nc3cc(C#Cc4ccccn4)ccc3n2-c2ccccc2)n1 [Example 85]
B = CC(C)Cn1c(CCNCCc2nc(C(=O)NCc3ncccc3F)co2)nc2ccccc21 [Example 8]
Q: Compare A and B and name the one whose reported IC50 is smaller. Give the chosen item's label as your response.
Ans: B
